- Assayed System: TTBK2 (human)
- Measurement Notes: radiometric filter-binding kinase assay
- Condition: compound 10.0 µM
Metric Name: residual activity (%)

{"Molecule": "CCn1c(-c2nonc2N)nc2cncc(CNC3CCNCC3)c21", "Units": "%", "residual activity": 101}

P: NCC(=O)Nc1ccc(-n2nc(C(F)(F)F)cc2-c2ccc3c(ccc4ccccc43)c2)cc1
Q: COC(=O)/C=C/C(=O)OC
Qu. Between P and Q , which one shows the larger residual activity value? Write down the label of the entry you select.
Ans. P

====

- Assayed System: SYK (human) (UniProt P43405)
- Measurement Notes: radiometric filter-binding kinase assay
- Condition: compound 1.0 µM
Metric Name: residual activity (%)

Illustrative cases are given below, each with its answer.
{"Compound": "O=C(O)c1cc(N=Nc2ccc(S(=O)(=O)Nc3ccccn3)cc2)ccc1O", "Assayed System": "SYK (human) (UniProt P43405)", "residual activity / %": 101}
{"Compound": "O=C(NOC[C@H](O)CO)c1ccc(F)c(F)c1Nc1ccc(I)cc1Cl", "Assayed System": "SYK (human) (UniProt P43405)", "residual activity / %": 111}
{"Compound": "C=C1C(=O)OC2C1CC/C(C)=C/CCC1(C)OC21 (centres undefined)", "Assayed System": "SYK (human) (UniProt P43405)", "residual activity / %": 102}
{"Compound": "Cn1c(=O)c2c(ncn2C)n(C)c1=O", "Assayed System": "SYK (human) (UniProt P43405)", "residual activity / %": 86}
{"Compound": "C=CC(=O)N1CCC[C@@H](n2nc(-c3ccc(Oc4ccccc4)cc3)c3c(N)ncnc32)C1", "Assayed System": "SYK (human) (UniProt P43405)", "residual activity / %": 100}

I: CC1=C(CO)C(=O)O[C@@H]([C@@H](C)[C@H]2CC[C@H]3[C@@H]4C[C@H]5O[C@]56[C@@H](O)C=CC(=O)[C@]6(C)C4CC[C@]23C)C1 (some centres undefined)
II: O=C(O)c1ccc(-c2c[nH]c3ncc(-c4ccccc4)cc23)cc1C1CCCC1
III: CNC(=O)C1[C@H]2O[C@@](C)([C@@H]1N)n1c3ccccc3c3c4c(c5c6ccccc6n2c5c31)C(=O)NC4 (some centres undefined)
IV: COc1ccc(-n2ncc3cnc(Nc4cc(OC)c(OC)c(OCCCN5CCN(C)CC5)c4)nc32)cc1
Qu. Hey, quick one: sort these by residual activity, low to high? Your reply should list the labels following the order given in the request.
Ans. III, IV, II, I
(III: 2%, IV: 13%, II: 66%, I: 115%)

A: NC1(c2ccc(-c3nc4ccn5c(=O)[nH]nc5c4cc3-c3ccccc3)cc2)CCC1
B: Cc1ccc(Sc2cnc(Nc3cccc(Br)n3)s2)cc1C(=O)N1CCN(C(=O)CN)CC1
C: NC(=O)Nc1ccc2c(c1)/C(=C/c1cc(-c3cccnc3)c[nH]1)C(=O)N2
Qu. Hey, quick one: sort these by residual activity, low to high? Your reply should list the labels following the order given in the request.
Ans. C, B, A

These data points were gathered from the kinase profiling compilation of Christmann-Franck et al. (2016).
